target: Acetylcholinesterase (Homo sapiens, UniProt P22303)
Sequence (P22303 whole entry): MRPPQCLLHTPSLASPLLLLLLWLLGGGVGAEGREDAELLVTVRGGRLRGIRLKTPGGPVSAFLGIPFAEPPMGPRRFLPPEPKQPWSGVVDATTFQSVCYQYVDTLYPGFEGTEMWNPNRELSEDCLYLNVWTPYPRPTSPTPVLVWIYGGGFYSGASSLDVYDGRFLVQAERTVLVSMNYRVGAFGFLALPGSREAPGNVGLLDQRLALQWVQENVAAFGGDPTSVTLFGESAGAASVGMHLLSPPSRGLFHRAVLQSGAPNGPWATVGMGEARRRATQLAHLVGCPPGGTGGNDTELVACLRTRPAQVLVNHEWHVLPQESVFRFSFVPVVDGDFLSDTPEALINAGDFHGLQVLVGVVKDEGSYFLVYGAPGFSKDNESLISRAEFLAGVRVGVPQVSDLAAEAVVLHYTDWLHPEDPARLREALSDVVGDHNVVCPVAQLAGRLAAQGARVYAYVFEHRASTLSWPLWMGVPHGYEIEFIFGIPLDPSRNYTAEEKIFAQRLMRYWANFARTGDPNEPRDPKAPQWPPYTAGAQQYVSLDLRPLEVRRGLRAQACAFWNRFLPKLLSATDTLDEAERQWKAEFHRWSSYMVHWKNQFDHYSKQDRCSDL
Measured Ki of individual entries

{"mol": "C[N+](C)(C)CCOC(=O)Nc1cc(Cl)nc(Cl)c1.[I-]", "target.entity": "Acetylcholinesterase (Homo sapiens, UniProt P22303)", "units.label": "µM", "Ki": 64.4}
{"mol": "CN(C)CCOC(=O)Nc1ccncc1", "target.entity": "Acetylcholinesterase (Homo sapiens, UniProt P22303)", "units.label": "µM", "Ki": 314}
{"mol": "C[N+](C)(C)CCOC(=O)Nc1ccncc1.[I-]", "target.entity": "Acetylcholinesterase (Homo sapiens, UniProt P22303)", "units.label": "µM", "Ki": 159}
{"mol": "C[N+](C)(C)CCOC(=O)Nc1ccncc1Br", "target.entity": "Acetylcholinesterase (Homo sapiens, UniProt P22303)", "units.label": "µM", "Ki": 116}
{"mol": "CN(C)CCOC(=O)Nc1ccncc1Br", "target.entity": "Acetylcholinesterase (Homo sapiens, UniProt P22303)", "units.label": "µM", "Ki": 316}
{"mol": "CN(C)CCOC(=O)Nc1ccnc(Cl)c1", "target.entity": "Acetylcholinesterase (Homo sapiens, UniProt P22303)", "units.label": "µM", "Ki": 208}
{"mol": "C[N+](C)(C)CCOC(=O)Nc1ccnc(Cl)c1", "target.entity": "Acetylcholinesterase (Homo sapiens, UniProt P22303)", "units.label": "µM", "Ki": 151}
{"mol": "CN(C)CCOC(=O)Nc1cc(Cl)nc(Cl)c1", "target.entity": "Acetylcholinesterase (Homo sapiens, UniProt P22303)", "units.label": "µM", "Ki": 140}

Values compiled from ChEMBL document CHEMBL1140781.
